System: soybean (Glycine max Merr.)
procedureDetails: Test Example 1: foliar treatment, upland pot test, soybean
Format: in vivo
recordedConditions: Glycine max, 31 g/ha active ingredient, observed 17th to 25th day after application, read-out: Growth inhibition rate (%) Soybean
quantity: inhibition at 31 g/ha (%)
State just the number; it will be interpreted in %.

Past entries and their recorded results:
smilesInput: COc1c(S(C)(=O)=O)ccc(C(=O)c2cnn(C)c2O)c1C
inhibition at 31 g/ha, %: 60

smilesInput: Cn1ncc(C(=O)c2ccc(S(C)(=O)=O)c(Cl)c2Cl)c1O
inhibition at 31 g/ha, %: 50

smilesInput: COC(COc1c(S(C)(=O)=O)ccc(C(=O)c2cnn(C)c2O)c1C)OC
inhibition at 31 g/ha, %: 98

smilesInput: Cc1c(C(=O)c2cnn(C)c2O)ccc(S(C)(=O)=O)c1OC(F)F
inhibition at 31 g/ha, %: 60

smilesInput: COCCOc1c(S(C)(=O)=O)ccc(C(=O)c2cnn(C)c2O)c1C
inhibition at 31 g/ha, %: 95

Q. Give the measured inhibition at 31 g/ha for CCOC(=O)c1c(S(C)(=O)=O)ccc(C(=O)c2cnn(CC)c2O)c1Cl
A. 70

Q. Give the measured inhibition at 31 g/ha for Cc1c(C(=O)c2cnn(C)c2O)ccc(S(C)(=O)=O)c1C#N
A. 70

Q. Give the measured inhibition at 31 g/ha for Cc1c(C(=O)c2cnn(C)c2O)ccc(S(C)(=O)=O)c1CC1OCCO1
A. 80

---

Tested on: corn (Zea mays L.)
procedureDetails: Test Example 2: soil application on the day after sowing, corn
Format: in vivo
recordedConditions: Zea mays, 250 g/ha active ingredient, observed 19th to 28th day after application, read-out: Growth inhibition rate (%) Corn
inhibition at 250 g/ha by entry:
State just the number; it will be interpreted in %.

smilesInput: Cc1c(C(=O)c2cnn(C)c2O)ccc(S(C)(=O)=O)c1CC1OCCO1
unit: %
measured: 0

Q. Give the measured inhibition at 250 g/ha for CCn1ncc(C(=O)c2ccc(S(C)(=O)=O)c(C(=O)OC)c2C)c1O
A. 0

Q. Give the measured inhibition at 250 g/ha for CCOC(=O)c1c(S(C)(=O)=O)ccc(C(=O)c2cnn(CC)c2O)c1Cl
A. 10

---

Growth inhibition rate (%) Rice by entry:
System: rice (Oryza sativa L.)
procedureDetails: Test Example 2: soil application on the day after sowing, rice
Format: in vivo
recordedConditions: 250 g/ha active ingredient, observed 19th to 28th day after application
State just the number; it will be interpreted in %.

Past entries and their recorded results:
compound: CCn1ncc(C(=O)c2ccc(S(C)(=O)=O)c(OCCOC)c2C)c1O
unit: %
Growth inhibition rate (%) Rice: 100
//
compound: CCc1nn(C)c(O)c1C(=O)c1ccc(S(C)(=O)=O)c(OCCOC)c1C
unit: %
Growth inhibition rate (%) Rice: 20
//
compound: COCC(C)Oc1c(S(C)(=O)=O)ccc(C(=O)c2cnn(C)c2O)c1C (centres unmarked)
unit: %
Growth inhibition rate (%) Rice: 75

Q. Give the measured Growth inhibition rate (%) Rice for CCCOC(=O)c1c(S(C)(=O)=O)ccc(C(=O)c2cnn(CC)c2O)c1Cl
A. 50

Q. Give the measured Growth inhibition rate (%) Rice for Cc1c(C(=O)c2cnn(C)c2O)ccc(S(C)(=O)=O)c1COC(C)C
A. 90

Q. Give the measured Growth inhibition rate (%) Rice for COCCOc1c(S(C)(=O)=O)ccc(C(=O)c2c(C)nn(C(C)C)c2O)c1C
A. 100

Q. Give the measured Growth inhibition rate (%) Rice for COC(C)COc1c(S(C)(=O)=O)ccc(C(=O)c2cnn(C)c2O)c1C (centres unmarked)
A. 100

Q. Give the measured Growth inhibition rate (%) Rice for Cc1c(C(=O)c2cnn(C)c2O)ccc(S(C)(=O)=O)c1COCC(F)(F)F
A. 100
